tested target: T1, Cynomolgus TCR(AEA41865/AEA41866)-zipper protein (cynomolgus monkey)
T1 construct: also called cyTCR-zipper protein; cynoTCR zipper
T1 TCR alpha: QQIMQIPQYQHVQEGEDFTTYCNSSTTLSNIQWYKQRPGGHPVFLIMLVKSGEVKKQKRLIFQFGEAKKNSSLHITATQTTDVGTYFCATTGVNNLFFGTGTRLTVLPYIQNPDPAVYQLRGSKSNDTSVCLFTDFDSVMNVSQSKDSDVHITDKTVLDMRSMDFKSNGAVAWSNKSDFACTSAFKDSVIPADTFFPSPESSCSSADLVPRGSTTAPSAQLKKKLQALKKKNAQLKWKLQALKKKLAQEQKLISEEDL
T1 TCR beta: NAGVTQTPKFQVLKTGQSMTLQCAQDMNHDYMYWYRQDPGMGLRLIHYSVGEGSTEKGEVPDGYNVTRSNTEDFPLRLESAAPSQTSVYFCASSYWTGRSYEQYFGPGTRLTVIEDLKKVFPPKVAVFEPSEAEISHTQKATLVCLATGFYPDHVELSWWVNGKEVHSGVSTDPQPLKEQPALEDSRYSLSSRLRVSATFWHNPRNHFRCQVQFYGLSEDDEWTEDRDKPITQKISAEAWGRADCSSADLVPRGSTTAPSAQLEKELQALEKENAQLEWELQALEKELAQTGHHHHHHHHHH
test summary: SPR ProteOn off-rate screen
quantity kind: koff (s⁻¹)

{"binder": "T017000285 (VHH) VHH: EVQLVESGGGVVQPGGSLRLSCVASGDVHKINFLGWYRQAPGKEREKVAHISIGDQTDYADSAKGRFTISRDESKNMVYLQMNSLRPEDTALYFCRAFSRIYPYLYWGQGTLVTVSS", "quantity kind": "koff", "unit abbrev": "s⁻¹", "test result": 0.0216}
{"binder": "T017000290 (VHH) VHH: EVQLVESGGGVVQPGGSLRLSCVASGDVHKINFLGWYRQAPGKEREKVAHISIGDQTDYADSAKGRFTISRDESKNMVYLQMNSLRPEDTALYFCRAFSKIYPYDYWGQGTLVTVSS", "quantity kind": "koff", "unit abbrev": "s⁻¹", "test result": 0.00171}
{"binder": "T017000278 (VHH) VHH: EVQLVESGGGVVQPGGSLRLSCVASGDVHKINFLGWYRQAPGKEREKVAHISIGDQTDYADSAKGRFTISRDESKNMVYLQMNSLRPEDTALYFCRAFSRIYPYSYWGQGTLVTVSS", "quantity kind": "koff", "unit abbrev": "s⁻¹", "test result": 0.0162}

[P] T017000312 (VHH) VHH: EVQLVESGGGVVQPGGSLRLSCVASGDVHKINFLGWYRQAPGKEREKVAHISIGDQTDYADSAKGRFTISRDESKNMVYLQMNSLRPEDTALYFCRALSRIYPYDYWGQGTLVTVSS
[Q] T017000283 (VHH) VHH: EVQLVESGGGVVQPGGSLRLSCVASGDVHKINFLGWYRQAPGKEREKVAHISIGDQTDYADSAKGRFTISRDESKNMVYLQMNSLRPEDTALYFCRAFSSIYPYDYWGQGTLVTVSS
Which of these two has the smaller recorded koff: P or Q ? Answer with the label corresponding to your selection.
Q
(Q: 0.00559 s⁻¹, P: 0.0087 s⁻¹)
